Assay: Acute ulcerogenic activity in Sprague-Dawley male rat assessed as average severity of ulcers at 50 mg/kg/day, po administered for 3 days
Format: toxicity, organism-based
Conditions: in vivo, 72 h, time 3 day
readout: Activity

{"columns": ["compound", "value"],
 "data": [
  ["COc1ccc2c(c1)c(CC(=O)O)c(C)n2C(=O)c1ccc(Cl)cc1 [INDOMETHACIN]", 1],
  ["Cc1ccc(-c2cc(C(F)(F)F)nn2-c2ccc(S(N)(=O)=O)cc2)cc1 [CELECOXIB]", 1],
  ["Cc1ccc(C2SCC(=O)N2c2ccc(OCC(=O)Nc3ccc(Cl)cc3)cc2)cc1 (stereo not given)", 2],
  ["COc1ccc(NC(=O)COc2ccc(N3C(=O)CSC3c3ccccc3)cc2)cc1 (stereo not given)", 1],
  ["Cc1ccc(C2SCC(=O)N2c2ccc(OCC(=O)Nc3ccc(F)cc3)cc2)cc1 (stereo not given)", 2.6]
]}

###

Assay: Cytotoxicity against human MRC5 cells assessed as inhibition in cell growth incubated for 72 hrs by MTT assay
Assay type: toxicity, cell-based
readout: IC50 at 72 h (µM)

{"columns": ["molecule", "readout", "value"],
 "data": [
  ["O=C(COc1ccc(N2C(=O)CSC2c2ccccc2)cc1)Nc1ccc(Cl)cc1 (stereo not drawn)", "IC50 at 72 h", 10.7],
  ["COc1cccc2c1C(=O)c1c(O)c3c(c(O)c1C2=O)C[C@@](O)(C(=O)CO)C[C@@H]3O[C@H]1C[C@H](N)[C@H](O)[C@H](C)O1", "IC50 at 72 h", 2.5],
  ["O=C(COc1ccc(N2C(=O)CSC2c2ccc(Cl)cc2)cc1)Nc1ccc(F)cc1 (stereo not drawn)", "IC50 at 72 h", 8.72],
  ["COc1ccc(NC(=O)COc2ccc(N3C(=O)CSC3c3ccccc3)cc2)cc1OC (stereo not drawn)", "IC50 at 72 h", 7.37],
  ["Cc1ccc(NC(=O)COc2ccc(N3C(=O)CSC3c3ccc(Cl)cc3)cc2)cc1 (stereo not drawn)", "IC50 at 72 h", 3.18],
  ["COc1ccc(NC(=O)COc2ccc(N3C(=O)CSC3c3ccccc3)cc2)cc1 (stereo not drawn)", "IC50 at 72 h", 6.23],
  ["O=C(COc1ccc(N2C(=O)CSC2c2ccccc2)cc1)Nc1ccccc1 (stereo not drawn)", "IC50 at 72 h", 3.69],
  ["Cc1ccc(C2SCC(=O)N2c2ccc(OCC(=O)Nc3ccccc3)cc2)cc1 (stereo not drawn)", "IC50 at 72 h", 0.89]
]}

###

Assay: Selectivity index, ratio of IC50 for cytotoxicity against human MRC5 cells to IC50 for cytotoxicity against human MCF7 cells
Details: MRC5 cells versus MCF7 cells
In this section we review reported selectivity ratio at 72 h values for a set of molecules.

{"columns": ["molecule", "selectivity ratio at 72 h"],
 "data": [
  ["O=C(COc1ccc(N2C(=O)CSC2c2ccc(Cl)cc2)cc1)Nc1ccc(Cl)cc1 (stereo not given)", 2.83],
  ["Cc1ccc(NC(=O)COc2ccc(N3C(=O)CSC3c3ccccc3)cc2)cc1 (stereo not given)", 1.59],
  ["O=C(COc1ccc(N2C(=O)CSC2c2ccc(Cl)cc2)cc1)Nc1ccccc1 (stereo not given)", 1.13],
  ["Cc1ccc(C2SCC(=O)N2c2ccc(OCC(=O)Nc3ccc(F)cc3)cc2)cc1 (stereo not given)", 3.04],
  ["COc1ccc(NC(=O)COc2ccc(N3C(=O)CSC3c3ccc(Cl)cc3)cc2)cc1 (stereo not given)", 0.81],
  ["O=C(COc1ccc(N2C(=O)CSC2c2ccc(Cl)cc2)cc1)Nc1ccc(F)cc1 (stereo not given)", 5.97],
  ["O=C(COc1ccc(N2C(=O)CSC2c2ccccc2)cc1)Nc1ccc(F)cc1 (stereo not given)", 4.89],
  ["COc1cc(NC(=O)COc2ccc(N3C(=O)CSC3c3ccccc3)cc2)cc(OC)c1OC (stereo not given)", 4.13],
  ["COc1ccc(NC(=O)COc2ccc(N3C(=O)CSC3c3ccccc3)cc2)cc1 (stereo not given)", 4.13],
  ["Cc1ccc(C2SCC(=O)N2c2ccc(OCC(=O)Nc3ccccc3)cc2)cc1 (stereo not given)", 0.77]
]}

###

Assay: Selectivity index, ratio of IC50 for cytotoxicity against human MRC5 cells to IC50 for cytotoxicity against human HT-29 cells
Conditions: MRC5 cells versus HT-29 cells
# note: exactly 3 is not below, so it is no; use yes for selectivity ratio at 72 h strictly under it

{"columns": ["compound", "category-label"],
 "data": [
  ["Cc1ccc(C2SCC(=O)N2c2ccc(OCC(=O)Nc3ccccc3)cc2)cc1 (configuration not stated)", "yes"],
  ["O=C(COc1ccc(N2C(=O)CSC2c2ccc(Cl)cc2)cc1)Nc1ccc(Cl)cc1 (configuration not stated)", "no"],
  ["O=C(COc1ccc(N2C(=O)CSC2c2ccc(Cl)cc2)cc1)Nc1ccc(F)cc1 (configuration not stated)", "no"],
  ["Cc1ccc(NC(=O)COc2ccc(N3C(=O)CSC3c3ccc(Cl)cc3)cc2)cc1 (configuration not stated)", "no"],
  ["COc1ccc(NC(=O)COc2ccc(N3C(=O)CSC3c3ccc(Cl)cc3)cc2)cc1 (configuration not stated)", "yes"],
  ["O=C(COc1ccc(N2C(=O)CSC2c2ccc(Cl)cc2)cc1)Nc1ccccc1 (configuration not stated)", "no"],
  ["O=C(COc1ccc(N2C(=O)CSC2c2ccccc2)cc1)Nc1ccc(F)cc1 (configuration not stated)", "yes"],
  ["Cc1ccc(C2SCC(=O)N2c2ccc(OCC(=O)Nc3ccc(F)cc3)cc2)cc1 (configuration not stated)", "no"],
  ["Cc1ccc(NC(=O)COc2ccc(N3C(=O)CSC3c3ccc(C)cc3)cc2)cc1 (configuration not stated)", "no"],
  ["O=C(COc1ccc(N2C(=O)CSC2c2ccccc2)cc1)Nc1ccccc1 (configuration not stated)", "yes"],
  ["Cc1ccc(NC(=O)COc2ccc(N3C(=O)CSC3c3ccccc3)cc2)cc1 (configuration not stated)", "yes"],
  ["COc1ccc(NC(=O)COc2ccc(N3C(=O)CSC3c3ccc(C)cc3)cc2)cc1 (configuration not stated)", "yes"],
  ["COc1ccc(NC(=O)COc2ccc(N3C(=O)CSC3c3ccccc3)cc2)cc1 (configuration not stated)", "no"],
  ["COc1ccc(NC(=O)COc2ccc(N3C(=O)CSC3c3ccccc3)cc2)cc1OC (configuration not stated)", "no"],
  ["Cc1ccc(C2SCC(=O)N2c2ccc(OCC(=O)Nc3ccc(Cl)cc3)cc2)cc1 (configuration not stated)", "no"]
]}

###

In this section we review reported IC50 at 72 h values for a set of compounds.
Experiment: Cytotoxicity against human MRC5 cells assessed as inhibition in cell growth incubated for 72 hrs by MTT assay
Type: toxicity, cell-based
readout: IC50 at 72 h

{"columns": ["compound", "readout", "value"],
 "data": [
  ["O=C(COc1ccc(N2C(=O)CSC2c2ccccc2)cc1)Nc1ccc(F)cc1 (stereo not given)", "IC50 at 72 h", "13.5 µM"],
  ["Cc1ccc(C2SCC(=O)N2c2ccc(OCC(=O)Nc3ccc(F)cc3)cc2)cc1 (stereo not given)", "IC50 at 72 h", "2.46 µM"],
  ["Cc1ccc(NC(=O)COc2ccc(N3C(=O)CSC3c3ccc(C)cc3)cc2)cc1 (stereo not given)", "IC50 at 72 h", "3.11 µM"],
  ["Cc1ccc(C2SCC(=O)N2c2ccc(OCC(=O)Nc3ccc(Cl)cc3)cc2)cc1 (stereo not given)", "IC50 at 72 h", "0.47 µM"],
  ["O=C(COc1ccc(N2C(=O)CSC2c2ccc(Cl)cc2)cc1)Nc1ccccc1 (stereo not given)", "IC50 at 72 h", "1.48 µM"],
  ["O=C(COc1ccc(N2C(=O)CSC2c2ccc(Cl)cc2)cc1)Nc1ccc(Cl)cc1 (stereo not given)", "IC50 at 72 h", "6.6 µM"],
  ["Cc1ccc(NC(=O)COc2ccc(N3C(=O)CSC3c3ccccc3)cc2)cc1 (stereo not given)", "IC50 at 72 h", "2.85 µM"],
  ["COc1ccc(NC(=O)COc2ccc(N3C(=O)CSC3c3ccc(Cl)cc3)cc2)cc1 (stereo not given)", "IC50 at 72 h", "1 µM"],
  ["COc1cc(NC(=O)COc2ccc(N3C(=O)CSC3c3ccccc3)cc2)cc(OC)c1OC (stereo not given)", "IC50 at 72 h", "9.38 µM"],
  ["COc1ccc(NC(=O)COc2ccc(N3C(=O)CSC3c3ccc(C)cc3)cc2)cc1 (stereo not given)", "IC50 at 72 h", "2.89 µM"]
]}

###

Assay: Acute ulcerogenic activity in Sprague-Dawley male rat assessed as incidence of ulcer/10 animal at 50 mg/kg/day, po administered for 3 days
Type: toxicity, organism-based
Settings: in vivo, 72 h, time 3 day
In this section we review reported Activity values for a set of compounds.
readout: Activity (%)

{"columns": ["compound", "value"],
 "data": [
  ["Cc1ccc(C2SCC(=O)N2c2ccc(OCC(=O)Nc3ccc(F)cc3)cc2)cc1 (stereo not given)", 10],
  ["COc1ccc(NC(=O)COc2ccc(N3C(=O)CSC3c3ccccc3)cc2)cc1 (stereo not given)", 3.33],
  ["Cc1ccc(-c2cc(C(F)(F)F)nn2-c2ccc(S(N)(=O)=O)cc2)cc1 [CELECOXIB]", 6.67],
  ["Cc1ccc(C2SCC(=O)N2c2ccc(OCC(=O)Nc3ccc(Cl)cc3)cc2)cc1 (stereo not given)", 10],
  ["COc1ccc2c(c1)c(CC(=O)O)c(C)n2C(=O)c1ccc(Cl)cc1 [INDOMETHACIN]", 10]
]}
